Please provide measured TGI for the entries that follow.
# System: ACHN renal
# experimentDescription: NCI tumour cell line growth inhibition, 48 h

Some solved cases for reference:
>  <compound>
CC1(C)OB(O)OC1(C)C

>  <TGI>
> 100 µM

$$$$
>  <compound>
COC(=O)Nc1nc2ccc(C(=O)c3ccc(N(C)C4COC4)cc3)cc2[nH]1

>  <TGI>
> 100 µM

$$$$
>  <compound>
CN(C)/N=C(/c1nc2ccc([N+](=O)[O-])cc2[nH]c1=O)C(O)c1ccco1 (configuration not stated)

>  <TGI>
> 100 µM

$$$$
>  <compound>
N=c1c2c(=S)n(-c3ccccc3)c(=S)n(-c3ccccc3)c2nc(SCCCN2CCN(c3cccc(Cl)c3)CC2)n1-c1ccccc1

>  <TGI>
> 100 µM

$$$$
>  <compound>
CC1(C)CC23CC(C)(C)c4cccc(c42)OCc2ccc4ccc5ccc(nc5c4n2)COc2cccc1c23

>  <TGI>
> 50 µM

$$$$

List reported TGI for each of these compounds:
1. CCN(CC)CCCn1c(=O)c2ccccc2n2c3c(=O)n(C)c(=O)n(C)c3nc12
2. O=C(Cc1nc2ccccc2s1)C(=O)Nc1cccc(Cl)c1
3. CC(=O)OC1CC2Oc3ccc(C)cc3C(C)(O2)C1=O (configuration not stated)
4. Cc1nc(CN2CCCCC2)c(O)c(=O)[nH]1
5. CC(C)CC(=O)Nc1n[nH]c2c1CN(C(=O)C1CCN(C)CC1)C2(C)C
6. CCN(CC)C(=S)SS(=O)(=O)c1ccc(Cl)cc1
7. O=C1C=CC2=[N+]([O-])C(c3ccccc3)(c3ccccc3)C(=Nc3ccccc3)C2=C1
8. CC(=O)NNc1nc(C)c(C(/C=C/c2ccc([N+](=O)[O-])cc2)=N/NC(N)=S)s1

1: 4.17 µM; 2: > 100 µM; 3: > 100 µM; 4: > 100 µM; 5: > 10 µM; 6: > 100 µM; 7: 3.36 µM; 8: > 100 µM

Take each entry in turn and give its TGI.
1. Oc1ccccc1C=Nc1ccc(-c2nc3ccccc3[nH]2)cc1
2. O=C(O)CCC/C=C\C[C@H]1C=CC(=O)/C1=C/C[C@@H](O)CCc1cccc(C(F)(F)F)c1
3. C=C(C)CC1(O)C(=O)C(OCC)=C1OCC (configuration not stated)
4. CCN(CC)CCCC(C)Nc1nc(C)cc(Nc2ccc3nc(C)cc(N)c3c2)n1 (configuration not stated)
5. COC1=CC(=O)C(OC)=C(OC)C1=O
6. O=C(O)Cc1ccc(Oc2nc3ccccc3nc2C(=O)O)cc1
7. OC[C@]1(n2nc3ccccc3n2)OC[C@@H]1c1ccccc1

["> 100 µM", "3.22 µM", "> 100 µM", "> 100 µM", "25.3 µM", "> 100 µM", "> 100 µM"]

Would you mind giving TGI for every compound in the list below?
1. O=C(Cc1csc(-c2nc(CC(=O)NNc3ccccc3)cs2)n1)NNc1ccccc1
2. Cc1cc(S(=O)(=O)/N=C(\[N-]S(=O)(=O)c2ccc(Cl)cc2)[n+]2ccc(N(C)C)cc2)c(S)cc1Cl

1. > 100 µM
2. > 100 µM

###

# Tested on: UO-31 renal
# experimentDescription: NCI tumour cell line growth inhibition, 48 h
measuredParameter: TGI

>  <molecule>
O=S(=O)(N/N=C/c1cccc(Cl)c1Cl)c1ccccc1

>  <measuredParameter>
TGI

>  <testValue>
> 100 µM

$$$$
>  <molecule>
O=C1O[C@H]2[C@H](O)[C@@H](OC(=O)c3cc(O)c(O)c4c3[C@@H]3C1=CC(=O)C(O)(O)C3(O)O4)[C@H](OC(=O)c1cc(O)c(O)c(O)c1)O[C@@H]2CO (some centres undefined)

>  <measuredParameter>
TGI

>  <testValue>
> 100 µM

$$$$
>  <molecule>
COc1cc2c(cc1OC)C(OC)N(C)c1c-2ccc2cc3c(cc12)OCO3 (centres undefined)

>  <measuredParameter>
TGI

>  <testValue>
74.7 µM

$$$$
>  <molecule>
CC1=CCC2C3(C)CCC2(C(C)C)C1C3 (centres undefined) (tested in a mixture with another compound)

>  <measuredParameter>
TGI

>  <testValue>
82.3 µM

$$$$

Return reported TGI values for all items listed beneath this line.
1. Cc1nc(C(N)=S)sc1C(/C=C/c1ccc(Cl)c(Cl)c1)=N/NC(C)(C)C
2. O=C(CCCNc1nc(-c2ccccc2)cs1)c1cccs1
3. CCN(CC)C(=S)SS(=O)(=O)c1ccc(Cl)cc1
4. O=Cc1ccc(-c2ccc(-c3nc4ccccc4o3)cc2)s1
5. COc1cc(C2SC(N)=Nc3c2c(C)nn3C(=O)c2ccccc2O)ccc1O (centres undefined)

> 100 µM
> 100 µM
35.7 µM
> 100 µM
> 10 µM

###

# System: EKVX NSCLC
# experimentDescription: NCI tumour cell line growth inhibition, 48 h
measuredParameter: TGI

Example entries and their recorded answers appear below.
>  <compound>
O=C(O)CNc1ccc(C(=O)O)cc1

>  <measuredParameter>
TGI

>  <testValue>
> 100 µM

$$$$
>  <compound>
CCn1cc(-c2ccnc3[nH]ccc23)c(-c2cccc(NC(=O)Nc3ccc(OCc4ccccc4)cc3)c2)n1

>  <measuredParameter>
TGI

>  <testValue>
> 25 µM

$$$$
>  <compound>
O/N=C1/C(=C/c2ccc(Oc3ccccc3)cc2)CCCC1C(NO)c1ccc(Oc2ccccc2)cc1 (centres undefined)

>  <measuredParameter>
TGI

>  <testValue>
> 100 µM

$$$$
>  <compound>
COc1ccc(C(=O)C(c2ccc(OC)cc2)C2OC(=O)C(Cl)=C2Cl)cc1 (centres undefined)

>  <measuredParameter>
TGI

>  <testValue>
> 100 µM

$$$$

Hi! Can you tell me TGI for each of these compounds?
1. Cc1nccc2c3ccc(OCc4cn(-c5ccc(Cl)cc5)nn4)cc3n(CCCc3ccccc3)c12
2. COc1cc(/C=C/c2cc(/C=C/c3ccc(O)c(OC)c3)nc(N)n2)ccc1O
3. CS(=O)(=O)CCNCc1ccc(-c2ccc3ncnc(Nc4ccc(OCc5cccc(F)c5)c(C(F)(F)F)c4)c3c2)o1

1. > 33.3 µM
2. 6.83 µM
3. 9.94 µM

Batch: TGI for all items listed.
1. O=c1[nH]c2cc([N+](=O)[O-])ccc2nc1/C(=N/Nc1ccccc1)C(O)c1ccc(C(O)/C(=N\Nc2ccccc2)c2cnc3cc([N+](=O)[O-])ccc3n2)cc1 (centres undefined)
2. Cc1ccccc1C(=O)Oc1ccc(O)cc1

1: > 100 µM; 2: > 100 µM

###

# System: NCI-H226 lung
# experimentDescription: NCI tumour cell line growth inhibition, 48 h; in the data active means GI50 below about 0.43 µM; inactive means the rest
Parameter call: string, one of active, inactive

In this assay, the call recorded for Cc1cc(Nc2c3ccccc3nc3ccccc23)ccc1NS(C)(=O)=O was what? inactive

Query N#CSc1c[nH]c2ccc(/C=C/C(=O)/C=C(/C=C/c3ccc4[nH]cc(SC#N)c4c3)OB(F)F)cc12 next inactive

Query Nc1nc(Cl)cc(OCC2(CO)CC(OCc3ccccc3)C2)n1 (stereo unspecified) next inactive

Repeat with CN(C)c1ncc(-c2ccc(C(F)(F)F)cc2)c(NC2CCCCCC2)n1 inactive

Also need Cc1cc2cn3c4ccc(O)cc4[nH]c(=O)c3c2cc1C , thanks. active

Query CC(=O)[O-].[Mn+3].[O-]c1ccccc1C=NCCN=Cc1ccccc1[O-] next inactive

###

# System: M14 melanoma
# experimentDescription: NCI tumour cell line growth inhibition, 48 h; in the data active means GI50 below about 0.43 µM; inactive means the rest
Just give me one of these, please: yes = active, no = inactive

A selection of reference data follows.
>  <compound>
O=Cc1ccc(-c2ccc(-c3nc4ccccc4o3)cc2)s1

>  <discreteLabel>
no

$$$$
>  <compound>
Nc1ccccc1NC(=O)c1ccc(CCCC(=O)Nc2ccc(C3CC3N)cc2)cc1 (stereo unspecified)

>  <discreteLabel>
no

$$$$
>  <compound>
Cc1cc(O)c(C2=NN(c3ccc(S(N)(=O)=O)cc3)C(c3ccc(N(C)C)cc3)C2)c(C)c1Cl (stereo unspecified)

>  <discreteLabel>
no

$$$$
>  <compound>
O=C(O)c1ccc(S(=O)(=O)Nc2ccc3oc4c(c3c2)C(=O)CCC4)cc1

>  <discreteLabel>
no

$$$$

# fetch the recorded call for N#CC(C#N)N=Nc1ccc(Br)cc1 here no

Moving on to the next compound: COC(=O)Nc1nc2ccc(C(=O)c3ccc(N(C)C4COC4)cc3)cc2[nH]1 yes

Also need CC#C/C(=N\OC[C@H]1COCCN1)c1ccc2ncnc(Nc3ccc(OCc4cccc(F)c4)c(Cl)c3)c2c1 , thanks. no

And for Fc1ccc(-c2ncn(C3CCNCC3)c2-c2ccnc(Oc3ccc(F)c(F)c3)n2)cc1 ? no

Another compound to look at: NCCN.NCCN.O=C[O-].O=C[O-].[Co+3].[O-][Cl+3]([O-])([O-])[O-] no

###

Answer each item with its documented TGI.
# System: OVCAR-4 ovarian
# experimentDescription: NCI tumour cell line growth inhibition, 48 h
Where a SMILES comes first, the peptide text is derived from it. [ ]: non-standard residue; d: D form. The star is where a group is joined. Tyr(3-Br) = N[C@@H](Cc1ccc(O)c(Br)c1)C(=O)O; Boc = CC(C)(C)OC(=O)*

>  <compound>
CCOC(=O)C(=O)Nc1ccc(Cl)cc1C

>  <targetOrTestSystem>
OVCAR-4 ovarian

>  <TGI>
> 100 µM

$$$$
>  <compound>
COC(=O)[C@H](Cc1ccc(O)c(Br)c1)NC(=O)[C@H](Cc1ccc(O)cc1)NC(=O)OC(C)(C)C (Boc-Tyr-[Tyr(3-Br)]-OMe)

>  <targetOrTestSystem>
OVCAR-4 ovarian

>  <TGI>
> 100 µM

$$$$
>  <compound>
COC(=O)c1c(O)c([N+](=O)[O-])cc2c1c1c(n2Cc2ccccc2)C(=O)c2ccccc2C1=O

>  <targetOrTestSystem>
OVCAR-4 ovarian

>  <TGI>
> 100 µM

$$$$

Batch request: TGI per item, same order as input.
1. Cc1cc(Nc2c3ccccc3nc3ccccc23)ccc1NS(C)(=O)=O
2. CC1=C(C(=O)Nc2cc(=O)n(C)c(=O)n2C)C(c2ccc([N+](=O)[O-])cc2)C(C(=O)Nc2cc(=O)n(C)c(=O)n2C)=C(C)N1
3. O=[N+]([O-])/C=C/c1cc2ccccc2[nH]1
4. C/C=C1/CN2CCC3(O)c4ccccc4N4C=C(C(=O)OC)C1CC2C43O (stereo not given)
5. CC1(C)OB(O)OC1(C)C

46.5 µM
> 100 µM
27.4 µM
> 100 µM
> 100 µM

Hi! Can you tell me TGI for each of these compounds?
1. O=C(O)c1cc2ccccc2c(N=Nc2cc(C(F)(F)F)ccc2Cl)c1O
2. Cc1cc(C)c2c(c1)CC1(Cc3c(C)ccc(C)c3C1=O)C2=O (stereo not given)

> 100 µM
> 100 µM
